Test system: Plasmodium falciparum
Assay: Antimicrobial activity against Plasmodium falciparum NF54 infected in human RBC after 48 hrs by [3H]hypoxanthine incorporation assay
Format: functional, organism-based
metric: IC50 (µM)

{"compoundStructureString": "O=C(Nc1ccc(Cl)c(-c2nc3ncccc3o2)c1)c1ccco1", "unitSymbol": "µM", "readoutValue": 7.8}

[I] O=C(Nc1ccc(Cl)c(-c2nc3ncccc3o2)c1)c1cscn1
[II] O=C(Nc1ccc(Cl)c(-c2nc3ncccc3o2)c1)c1ccoc1
Query string: Problem: Given the entries I and II , determine which has the lower reported IC50. Answer by quoting the chosen item's label.
Result string: II
(II: 4.9 µM, I: 7.7 µM)
